system: MCF-7 cells; test: MCF-7 Cell Proliferation Inhibition Assay; type: cell-based; details: Homo sapiens, MCF7, 144 h, 6 days incubation, CellTiter-Glo, read-out: MCF-7 cell proliferation suppression
Below, each of the molecules is paired with its reported IC50 value.
A number alone suffices; assume nM.

{"Molecule": "C[C@]12CC[C@@H]3c4ccc(O)cc4C[C@@H](CCCCCCCCC[S+]([O-])CCCC(F)(F)C(F)(F)F)[C@H]3[C@@H]1CC[C@@H]2O (some centres unmarked)", "IC50, nM": 1.77}

Moving on to another molecule below.
Entry CC1Cc2c([nH]c3ccccc23)C(c2c(F)cc(OCCN3CC(CC#N)C3)cc2F)N1CC(F)(F)F (centres unmarked) ; IC50 = 1.17

* * *

assay: Tissue distribution evaluation of the drug (plasma and brain); assay type: in vivo; settings: mouse, mice, dosage 10 mpk, 21th day after administration, tissue collected near Tmax, read-out: Ratio of drug concentration Brain tissue/plasma
Parameter Measured: Kp
Output: the number by itself.

{"Molecule": "CC1Cc2c([nH]c3ccccc23)C(c2c(F)cc(OCCN3CC(CC#N)C3)cc2F)N1CC(F)(F)F (centres unmarked) [(I)]", "Kp": 13.1}

Entry C[C@@H]1Cc2c([nH]c3ccccc23)[C@@H](c2c(F)cc(OCCN3CC(CF)C3)cc2F)N1CC(C)(C)F [(II)] ; Kp = 5.8
